system: Abeta oligomer-induced membrane trafficking deficits in primary hippocampal neurons; assay: Membrane trafficking/exocytosis (MTT) assay; format: cell-based, rat; conditions: Rattus norvegicus, Hippocampal neuron; dosed prior to Abeta oligomer addition; read-out: EC50 in inhibiting amyloid beta effect in Cell Measured by Membrane Trafficking Assay
pEC50: −log10 of the molar value.
QUANTITY NAME: pEC50

[[record]]
compound = "Cc1ccc([C@@H](C)CC(CC(C)(C)O)NCC(C)C)cc1 (some centres unmarked)"
quantity_name = "pEC50"
numeric_result = 5.16

[[record]]
compound = "CC(C)=CC(C[C@H](C)c1ccc(C)cc1)NCC(C)C (some centres unmarked)"
quantity_name = "pEC50"
numeric_result = 5.31


----------
target: Sigma-1 receptors (Homo sapiens, UniProt Q99720); assay: Sigma-1 competitive radioligand binding, [3H](+)pentazocine, Jurkat cell membranes; conditions: Sigma Affinity (S1) nM, Table 11E, own compounds
Sequence (Q99720 whole entry): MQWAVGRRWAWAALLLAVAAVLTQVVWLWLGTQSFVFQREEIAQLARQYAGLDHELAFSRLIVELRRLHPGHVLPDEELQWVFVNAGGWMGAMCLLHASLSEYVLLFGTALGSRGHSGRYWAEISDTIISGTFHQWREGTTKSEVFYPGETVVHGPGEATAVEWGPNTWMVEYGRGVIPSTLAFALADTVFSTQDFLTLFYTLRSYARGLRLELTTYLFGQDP
QUANTITY NAME: Ki (nM)

[[record]]
compound = "COc1cc(CCC(C)NCc2ccc(C(F)(F)F)cc2)ccc1O (stereo not shown)"
target_or_system = "Sigma-1 receptors (Homo sapiens, UniProt Q99720)"
numeric_result = 500


----------
tested on: Abeta oligomer-induced membrane trafficking deficits in primary hippocampal neurons; test: Membrane trafficking/exocytosis (MTT) assay; assay type: cell-based, rat; settings: scaffold drawing 245, R' varied; read-out: Membrane Trafficking EC50
QUANTITY NAME: EC50 (µM)

[[record]]
compound = "COc1cc(CCC(C)NCc2ccccc2)ccc1O (stereo not shown) [Entry 3]"
value_prefix = "="
numeric_result = 20

[[record]]
compound = "CNC(C)CCc1ccc(O)c(OC)c1 (stereo not shown) [Entry 5]"
value_prefix = "="
numeric_result = 30

[[record]]
compound = "COc1cc(CCC(C)NCCC(C)C)ccc1O (stereo not shown) [Entry 4]"
value_prefix = ">"
numeric_result = 30

[[record]]
compound = "COc1cc(CCC(C)NCc2ccc(Cl)cc2)ccc1O (stereo not shown) [Entry 2]"
value_prefix = "="
numeric_result = 12


----------
molecular target: sigma-2 receptor (Rattus norvegicus); assay: Competitive Radioligand Binding Assay 2, sigma-2, rat liver membrane homogenates; parameters: conducted using rat liver membrane homogenates; from tissue; host or cells: rat liver membrane homogenates; settings: read-out: Ki at sigma-2 receptors
Sequence (Q5U3Y7 whole entry): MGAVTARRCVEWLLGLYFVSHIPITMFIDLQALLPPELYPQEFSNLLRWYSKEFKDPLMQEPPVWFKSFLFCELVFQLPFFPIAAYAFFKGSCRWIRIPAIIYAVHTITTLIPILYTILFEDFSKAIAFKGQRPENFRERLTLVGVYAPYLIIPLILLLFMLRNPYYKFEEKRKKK
QUANTITY NAME: Ki

[[record]]
compound = "COc1cc(CCC(C)NCc2ccc(C(F)(F)F)cc2)ccc1O (stereo not shown)"
quantity_name = "Ki"
result = "59.7 nM"


----------
molecular target: sigma-2 receptor (Rattus norvegicus); assay: Sigma-2 competitive radioligand binding, [3H]DTG with 300 nM (+)pentazocine, rat cerebral cortex membranes
QUANTITY NAME: Ki (nM)

[[record]]
compound = "Cc1ccc([C@@H](C)CC(CC(C)(C)O)NCC(C)C)cc1 (some centres unmarked) [Compound IXb]"
target_or_system = "sigma-2 receptor (Rattus norvegicus)"
numeric_result = 23

[[record]]
compound = "CC(C)=CC(C[C@H](C)c1ccc(C)cc1)NCC(C)C (some centres unmarked) [Compound IXa]"
target_or_system = "sigma-2 receptor (Rattus norvegicus)"
numeric_result = 21


----------
target: UniProt Q5U3Y7; test: Sigma-2 competitive radioligand binding, [3H]DTG with 300 nM (+)pentazocine, rat cerebral cortex membranes; conditions: Ki at sigma-2 receptors, displacement of [3H]DTG/300 nM (+)-pentazocine, rat neocortex homogenate
pKi: −log10 of the molar value.
QUANTITY NAME: pKi

[[record]]
compound = "COc1cc(CCC(C)NCc2ccc(C(F)(F)F)cc2)ccc1O (stereo not shown) [Compound II]"
numeric_result = 8.05

